- protocol_description: protein stability index of a GFP-peptide fusion (GPS, HEK-293T) (PSI 1-6); higher = more stable;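 further: 24-mer peptide tiles fused after GFP, lentivirally expressed, FACS-sorted into six equal bins by GFP/DsRed ratio, decoded by Illumina sequencing, PSI is the read-weighted mean bin number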
- experimental_context: treatment: MLN4924 1 uM, 8 h; c terminus: a fixed tail appended
measured_quantity: protein stability index
# print the numeric value only

Reported protein stability index for LEQPFLSVFKKGRRRVPVRNLGKV [PLEKHN1] was 3.56

Reported protein stability index for IDSHLLLSVLPQLEFKLKSNDNEE [PDS5B] was 3.09

Reported protein stability index for MTTSHQPQDRYKAVWLIFFMLGLG [SLC29A1] was 2.41

Reported protein stability index for DDKDALVFVLIDEVESLTAARNAC [TRIP13] was 2.38

Reported protein stability index for MLKAEETCAPSVSYFKCVQKEVLP [CCND1] was 3.55
